Experiment: BET inhibitor-based combinations targeting novel dependencies in MECOM-rearranged (r) AML: SET-2 cell line (AID 2202231);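 further: plate controls were DMSO treated cells for no effect and wells without cells for full effect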
Settings: SET-2 AML cells viability, CellTiter-Glo luminescence, 48 h; stronger effect = lower value, series mostly up to about 46 µM
Method: Ecotropic viral insertion site 1 (EVI1) is located on chromosome 3q26.2 as part of the MECOM (MDS and EVI1 complex) locus. […] A collection of 2480 mechanistically annotated dugs (MIPE v5.0) was used to screen four 3q26.2 rearranged AML cell lines and three non-3q26.2 rearranged AML cell lines. […] Cell viability was determined by luminescence based, Cell Titer Glo assay (Promega). […] Luminescence readings were taken using a Viewlux (PerkinElmer) with a 2 s exposure time per plate. […]
Results filed as inconclusive are left out.
Record form. Attribute: viability. Fill in for each entry.
// return numeric value only (unit: %, not printed)

q: Which viability reading was recorded for the molecule CC(C)C[C@H](CN)CC(=O)O ?
a: 113

q: I have this molecule here, O=C(O)CNC(=O)C1C(=O)N(C2CCCCC2)C(=O)N(C2CCCCC2)C1=O , and I need its recorded viability.
a: 114

q: Could you tell me which viability is on file for CN(C)[C@@H]1C(=O)C(C(N)=O)=C(O)[C@@]2(O)C(=O)C3=C(O)c4c(O)cccc4[C@@](C)(O)[C@H]3[C@H](O)[C@@H]12 ?
a: 103

q: Look up viability for this molecule: CN(C)CCN(C)CCc1ccc(Cl)c(Cl)c1
a: 103

q: I am curious: what viability value has been reported for Cn1c(COP(=O)(NCCBr)NCCBr)cnc1[N+](=O)[O-] ?
a: 123

q: Any idea what its viability is? The molecule is COc1cc(C)[nH]c(=O)c1CNC(=O)c1c(C)n([C@H](C)C2CCOCC2)c2ccccc12
a: 113

q: Find the recorded viability belonging to Cc1ccccc1-n1c(Cn2cnc3c(N)ncnc32)nc2cccc(C)c2c1=O and report it.
a: 110

q: Would you mind telling me what viability value was observed for O=c1[nH]c2ccccc2n1C1CCN(Cc2ccc(-c3[nH]c4cc5ncnc5cc4nc3-c3ccccc3)cc2)CC1 ?
a: 104

q: Need viability of c1ccc2c(CN3CCNCC3)cccc2c1 , thanks.
a: 115

q: Query: viability; subject: COC12C(COC(N)=O)C3=C(C(=O)C(C)=C(N)C3=O)N1CC1C2N1C (stereo not given)
a: 107

From: PubChem BioAssay (NCATS)
